Answer each item with its documented protein stability index.
tested on: Saccharomyces cerevisiae; experiment: protein stability index of tFT-peptide fusion (C-terminal peptide) (PSI (0-1 scale)); higher = more stable (slower turnover); settings: genetic background: das1 deletion; temperature: 30 C
Keep it simple and answer with nothing but the number.

Consider IDLLAENTKTPI [COA1 C-terminal 12 aa] . Its measured protein stability index is 0.696

protein stability index in this record for DDFKKAFREKRK [ALY1 C-terminal 12 aa] : 0.729

Record NPVGVPNDDHHH [COX4 C-terminal 12 aa] , field protein stability index: 0.724

The reported value for SGETSDIIFRNY [ADK2 C-terminal 12 aa] in terms of protein stability index is 0.74

Reported protein stability index for KEVPLDFDPDRN [ANP1 C-terminal 12 aa] was 0.683

Lab book: protein stability index of LADLRVYLRVPG [YGL088W C-terminal 12 aa] noted as 0.565

Per the record, TFKGLYAEANSI [YOR111W C-terminal 12 aa] has protein stability index of 0.739

// sample FQRRSISGLGDL [INP1 C-terminal 12 aa] , its protein stability index was 0.711

Form: sequence = NEERINSKIFKS [RCF2 C-terminal 12 aa] ; protein stability index = 0.716

In plain terms, HQFCEQKYVETI [RRT16 C-terminal 12 aa] has a documented protein stability index of 0.711

Per the record, PPPPSRKCGTPK [LDB17 C-terminal 12 aa] has protein stability index of 0.713

# sequence QVTAVVVSYQGV [ATG11 C-terminal 12 aa] ; its protein stability index = 0.588

Lab note: EYIVNVNEYGHD [YOL153C C-terminal 12 aa] gave protein stability index of 0.68

Value of protein stability index reported for the sequence EVHALNRDHLVA [YHR138C C-terminal 12 aa] is 0.692

// recorded protein stability index for ACFVFSPSAMVT [BRP1 C-terminal 12 aa] : 0.649

Form field protein stability index, entry TAIVAVVALLLL [DAN4 C-terminal 12 aa] : 0.343

Record TDIENRNFRYIY [THI73 C-terminal 12 aa] . Reported protein stability index: 0.694

What the record says about LSSVKVRQLRNM [RBH2 C-terminal 12 aa] : protein stability index is 0.681

What the record says about ATFFRYLSNIFT [AGP3 C-terminal 12 aa] : protein stability index is 0.723

Entry under test: YSKHLKRLLPYH [MRP35 C-terminal 12 aa] . Its protein stability index was 0.679

Per the record, DIFDPVDFVSFF [OAF3 C-terminal 12 aa] has protein stability index of 0.772

Entry under test: SMHAFLCKIYKR [YCR095W-A C-terminal 12 aa] . Its protein stability index was 0.701

Sure, the documented protein stability index for DSERKVLSEALL [KAP114 C-terminal 12 aa] is 0.676

Form field protein stability index, entry DLAERLAETEIK [RNA1 C-terminal 12 aa] : 0.703

# protein stability index of KYRRQVRYTQRT [YGL052W C-terminal 12 aa] = 0.708

Just so you know, measured protein stability index for VAASKASKKSKI [NSA1 C-terminal 12 aa] came out at 0.683

Quick note, protein stability index for LKNGDKPHLLKF [RPL6B C-terminal 12 aa] landed at 0.714

The measured protein stability index associated with SGPVEELVSPSK [IRC8 C-terminal 12 aa] reads 0.703

Sure, the documented protein stability index for EAQLTRKQAPPV [COS9 C-terminal 12 aa] is 0.704

protein stability index measured on GDIIKLRESVNA [YJL215C C-terminal 12 aa] = 0.673

Form: sequence = KDSKEYFKNANN [TSA2 C-terminal 12 aa] ; protein stability index = 0.714

The reported protein stability index of the sequence VPYAKILDQCIL [YGL230C C-terminal 12 aa] was 0.693

Per the record, LMVPDPWYREGN [FAB1 C-terminal 12 aa] has protein stability index of 0.726

Measured protein stability index of QNYPIVSFSRVI [OSW1 C-terminal 12 aa] : 0.724

Data point: KTVSPNWEVKEL [CYM1 C-terminal 12 aa] ; protein stability index = 0.683

Entry SLCKNTIISSSV [YAL063C-A C-terminal 12 aa] ; protein stability index = 0.693

Data point: LVKHTYKRSSSS [VBA1 C-terminal 12 aa] ; protein stability index = 0.705

Entry under test: ENKNWSIITPSG [YBL086C C-terminal 12 aa] . Its protein stability index was 0.689

Record summary for SSLSFLSSFVDI [VAM10 C-terminal 12 aa] : reported protein stability index = 0.708

Consider SSVAFSKNLECV [YGR139W C-terminal 12 aa] . Its measured protein stability index is 0.707

Data point: EAQLSRSEVLLV [COS2 C-terminal 12 aa] ; protein stability index = 0.648

// recorded protein stability index for DVKPQENGNDSS [REG1 C-terminal 12 aa] : 0.71

Entry FAEYNRLSAIPV [LAM1 C-terminal 12 aa] — recorded protein stability index = 0.447

The reported numbers originate from the supplement of paper PMC10724198.
